BRET50 values for the binders below.
Target: T1, CXCR4-Rluc8 (human, UniProt P61073 1-352)
T1 construct: C-X-C chemokine receptor type 4 (CXCR4), human cDNA from the Missouri S&T cDNA Resource Center; source: HEK293A, transiently transfected, in cells; not shown: Rluc8, C-terminal, kept
T1 sequence (P61073 whole entry): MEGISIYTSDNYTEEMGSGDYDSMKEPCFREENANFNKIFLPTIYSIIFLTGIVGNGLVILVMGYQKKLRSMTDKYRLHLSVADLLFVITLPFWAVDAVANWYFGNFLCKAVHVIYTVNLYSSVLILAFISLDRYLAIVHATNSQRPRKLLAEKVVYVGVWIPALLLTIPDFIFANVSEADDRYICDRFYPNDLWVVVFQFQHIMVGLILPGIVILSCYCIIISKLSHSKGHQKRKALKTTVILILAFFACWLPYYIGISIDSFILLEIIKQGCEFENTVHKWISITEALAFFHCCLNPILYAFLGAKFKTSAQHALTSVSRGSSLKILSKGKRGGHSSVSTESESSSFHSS
Assay: FRET or BRET; quantitative BRET saturation in HEK293A cells: fixed amount of Rluc8-tagged donor, increasing amounts of mCit-tagged acceptor, coelenterazine h 5 µM; no ligand, no further receptor coexpressed
Settings: partners not purified
I only need the number, thanks.

Guide cases for BRET50, answers given:
mCit-tagged S1P1(TM4) (receptor, human, S1P1, human, the part before the printed TM4 stretch (SNNFRL...); TM4 of S1P3, human, put in place of TM4 of S1P1; S1P1, human, the part after the printed TM4 stretch (...ALSSCS); TM4 of S1P1 ([residues removed]) replaced with TM4 of S1P3; source: HEK293A, transiently transfected, in cells; not shown: mCitrine (mCit), C-terminal, kept) MGPTSVPLVKAHRSSVSDYVNYDIIVRHYNYTGKLNISADKENSIKLTSVVFILICCFIILENIFVLLTIWKTKKFHRPMYYFIGNLALSDLLAGVAYTANLLLSGATTYKLTPAQWFLREGSMFVALSASVFSLLAIAIERYITMLKMKLHNGNKRHRVFLLIGMCWLIAFTLGALPILGWNCLHNLPDCSTVLPLYHKHYILFCTTVFTLLLLSIVILYCRIYSLVRTRSRRLTFRKNISKASRSSEKSLALLKTVIIVLSVFIACWAPLFILLLLDVGCKVKTCDILFRAEYFLVLAVLNSGTNPIIYTLTNKEMRRAFIRIMSCCKCPSGDSAGKFKRPIIAGMEFSRSKSDNSSHPQKDEGDNPETIMSSGNVNSSS	7.19
mCit-tagged S1P1(TM3) (receptor, human, S1P1, human, the part before the printed TM3 stretch (KLTPAQ...); TM3 of S1P3, human, put in place of TM3 of S1P1; S1P1, human, the part after the printed TM3 stretch (...KLHNG); TM3 of S1P1 ([residues removed]) replaced with TM3 of S1P3; source: HEK293A, transiently transfected, in cells; not shown: mCitrine (mCit), C-terminal, kept) MGPTSVPLVKAHRSSVSDYVNYDIIVRHYNYTGKLNISADKENSIKLTSVVFILICCFIILENIFVLLTIWKTKKFHRPMYYFIGNLALSDLLAGVAYTANLLLSGATTYSLSPTVWFLREGSMFVALGASTCSLLAIAIERHLTMIKMRPYDASNNFRLFLLISACWVISLILGGLPIMGWNCISALSSCSTVLPLYHKHYILFCTTVFTLLLLSIVILYCRIYSLVRTRSRRLTFRKNISKASRSSEKSLALLKTVIIVLSVFIACWAPLFILLLLDVGCKVKTCDILFRAEYFLVLAVLNSGTNPIIYTLTNKEMRRAFIRIMSCCKCPSGDSAGKFKRPIIAGMEFSRSKSDNSSHPQKDEGDNPETIMSSGNVNSSS	7.24

Attention now shifts to the item below.
The binder listed as mCit-tagged S1P3(TM3) (receptor, human, S1P3, human, the part before the printed TM3 stretch (SLSPTV...); TM3 of S1P1, human, put in place of TM3 of S1P3; S1P3, human, the part after the printed TM3 stretch (...RPYDA); TM3 of S1P3 ([residues removed]) replaced with TM3 of S1P1; source: HEK293A, transiently transfected, in cells; not shown: mCitrine (mCit), C-terminal, kept) MATALPPRLQPVRGNETLREHYQYVGKLAGRLKEASEGSTLTTVLFLVICSFIVLENLMVLIAIWKNNKFHNRMYFFIGNLALCDLLAGIAYKVNILMSGKKTFKLTPAQWFLREGSMFVALSASVFSLLAIAIERYITMLKMKLHNGNKRHRVFLLIGMCWLIAFTLGALPILGWNCLHNLPDCSTILPLYSKKYIAFCISIFTAILVTIVILYARIYFLVKSSSRKVANHNNSERSMALLRTVVIVVSVFIACWSPLFILFLIDVACRVQACPILFKAQWFIVLAVLNSAMNPVIYTLASKEMRRAFFRLVCNCLVRGRGARASPIQPALDPSRSKSSSSNNSSHSPKVKEDLPHTAPSSCIMDKNAALQNGIFCN shows BRET50 equal to 6.97
